- test-conditions: 343.15 K; 100.5 kPa; Liquid; Vibrating tube method
measured-attribute: mass density (kg/m3)
Enter your answer as a number in kg/m3; do not include the unit.

Record excerpt, results attached:
[
  {
    "mol": "CCCCn1cc[n+](C)c1C.O=S(=O)([N-]S(=O)(=O)C(F)(F)F)C(F)(F)F",
    "measured-attribute": "mass density",
    "u": "kg/m3",
    "reported": 1377.8
  },
  {
    "mol": "CCCCCCn1cc[n+](C)c1C.O=S(=O)([N-]S(=O)(=O)C(F)(F)F)C(F)(F)F",
    "measured-attribute": "mass density",
    "u": "kg/m3",
    "reported": 1317.5
  },
  {
    "mol": "CCC[n+]1ccn(C)c1C.O=S(=O)([N-]S(=O)(=O)C(F)(F)F)C(F)(F)F",
    "measured-attribute": "mass density",
    "u": "kg/m3",
    "reported": 1412.4
  }
]

Looking up `CCn1cc[n+](C)c1C.O=S(=O)([N-]S(=O)(=O)C(F)(F)F)C(F)(F)F` , I see its mass density listed as 1448.2
